- testSummary: Cell medium stability
- Type: in vitro ADME

| compoundString | half-life |
| --- | --- |
| CNC(=O)[C@H](Cc1c[nH]cn1)NC(=O)CN(CCCc1ccccc1)CC(=O)OC | 11.3 h |
